// values below are reported OD450 with anti-CD40 antibody
# Subject Of Test: T1, CD40-human Fc (huFc) fusion protein (Creative BioMart) (human, UniProt P25942 21-193)
# T1 construct: bought; also called CD40-huFc; not shown: human Fc
# Protocol Notes: ELISA: CD40-huFc mixed with antibody, binding to plate-bound HA-tagged CD40L; also: test concentration or dose not given here
Give the value, in units of OD450, as a plain number.

AD163.9.3 (antibody, V domains shown, mouse hybridoma monoclonal; also called muAb1) VH: QVQLQQPGAELVKPGASVKMSCKASGYTFTSYWITWVKQRPGQGLEWIGEINPGSGSTNYNEKFKSKATLTVDTSSSTAYMQLSSLTSEDSAVYYCARNRGTGDYWGQGTTLTVSS VL: DVVMTQTPLSLPVSLGDQASISCRSSQSLVHSYGNTYLHWYLQKPGQSPKFLIYKVSNRISGVPDRLSGSGSGTDFTLKISRVEPEDLGVYFCSQSTHVPYTFGGGTKLEIK | 1.78

Reported OD450 with anti-CD40 antibody for AD163.27.12 (antibody, V domains shown, mouse hybridoma monoclonal; same VH as muAb6; also called muAb7) VH: QVQLQQPGAELVRPGSSVKLSCKASGYTFTSYWMHWVKQRPIQGLEWIGNIDPSNGETHYNQKFKDKATLTVDKSSSTAYMQLSSLTSEDSAVYYCARERIYYSGSTYDGYFDVWGTGTTVTVSS VL: QIVLTQSPAIMSASPGEKVTMTCSASSSLSYMHWYQQKSGTSPKRWIYDTSKLASGVPARFSGSGSGTSYSLTISSMEGEDGATYYCQQWSSNPWTFGGGTKLEIK : what is it? 0.328

Quick one: OD450 with anti-CD40 antibody of AD164.14.6 (antibody, V domains shown, mouse hybridoma monoclonal; also called muAb9) VH: DVQLQESGPGLVKPSQSLSLTCSVTGYSITSNYYWNWIRQFPGNKLEWMGYIRYDGSNNYNPSLKNRISITRDTSKNQFFLKLNSVTTEDTATYYCARLDYWGQGTTLTVSS VL: DAVMTQTPLSLPVSLGDQASISCRSSQSLENTNGNTFLNWFLQKPGQSPQLLIYRVSNRFSGVPDRFSGSGSGTDFTLKISRVEAEDLGVYFCLQVTHVPFTFGSGTKLEIK ? 1.88

What does the data say about its OD450 with anti-CD40 antibody? Entry: AD163.10.7 (antibody, V domains shown, mouse hybridoma monoclonal; also called muAb4) VH: LVQPGGSLSLSCAASGFTFSDYYMSWVRQPPGKALEWLGFIRNKANGYTTEFSASVKGRFTISRDNSQSILYLQMNALRAEDSATYYCARYGGLRQGWYFDVWGTGTTVTVSS VL: DIQMTQTTSSLSASLGDRVTISCRASQDIRNYLNWYQQKPDGTVKLLIYYTSRLHSGVPSRFSGSGSGTDYSLTISNLEQEDIATYFCQQGKTLPWTFGGGSKLEMK 1.34
